Where do these numbers come from? They come from patent US20200000897A1.

Target: T1, HLA-A*03:01 (human)
T1 construct: MHC class I monomer first loaded with a UV-sensitive peptide that is cleaved by UV irradiation and exchanged for the test peptide; captured on streptavidin plates; also called peptide-receptive MHC molecules
Test: UV-ligand exchange, anti-b2m ELISA; peptide exchange yield grade (>10% +, >20% ++, >50% +++, >75% ++++)
readoutLabel: peptide exchange yield

[
  {
    "binder": "LLPTVLIKK",
    "readoutLabel": "peptide exchange yield",
    "experimentalValue": "50 to 75%"
  },
  {
    "binder": "HAFFPKTHR",
    "readoutLabel": "peptide exchange yield",
    "experimentalValue": "> 75%"
  },
  {
    "binder": "EVILTTKTPK",
    "readoutLabel": "peptide exchange yield",
    "experimentalValue": "20 to 50%"
  },
  {
    "binder": "HLFLPFSYK",
    "readoutLabel": "peptide exchange yield",
    "experimentalValue": "> 75%"
  }
]
